# SYSTEM NAME: RBP4 (Mus musculus (Mouse), UniProt Q00724)
# PROTOCOL TEXT: Blood RBP4 lowering action in C57BL/6J mouse (plasma RBP4 by ELISA)
# Assay type: in vivo
# PROTOCOL CONDITIONS: 7 hr after single oral 50 mg/kg, mean±SD (n=5)
I'd appreciate it if you could supply RBP4 (% of initial/Control) 7 hr later values for the items below.

Measured RBP4 (% of initial/Control) 7 hr later, CC(C)(C)c1ccccc1OC1CN(C(=O)CCC(=O)O)C1 : 44.3 ± 2.0 % of initial/Control

RBP4 (% of initial/Control) 7 hr later reported for this molecule CC(C)(C)c1cc(Cl)ccc1OC1CN(C(=O)c2ccccn2)C1 : 46.4 ± 7.2 % of initial/Control

So for CC(C)(C)c1cc(Cl)ccc1OCC1CN(C(=O)C(=O)O)C1 , the logged RBP4 (% of initial/Control) 7 hr later turned out to be 49.0 ± 1.3 % of initial/Control

molecule CC(C)(C)c1ccccc1OCC1CCN(C(=O)CC(=O)O)C1 (stereo not shown) , RBP4 (% of initial/Control) 7 hr later observed: 29.2 ± 1.0 % of initial/Control

So for CC(C)(C)c1cc(F)ccc1OCC1CCN(C(=O)CC(=O)O)C1 (stereo not shown) , the logged RBP4 (% of initial/Control) 7 hr later turned out to be 60.6 ± 0.6 % of initial/Control

Measured RBP4 (% of initial/Control) 7 hr later, CC(C)(C)c1cc(F)ccc1OCC1CN(C(=O)CC(=O)O)C1 : 36.2 ± 4.2 % of initial/Control

// RBP4 (% of initial/Control) 7 hr later lookup, molecule = CC(C)(C)c1cc(Cl)ccc1OC1CN(C(=O)CCC(=O)O)C1 , result: 42.1 ± 1.3 % of initial/Control

* * *

# SYSTEM NAME: human RBP4 (Homo sapiens (Human))
# PROTOCOL TEXT: Binding assay by Retinol-RBP4-TTR ELISA (human-type ELISA)
# PROTOCOL CONDITIONS: inhibition of binding of RBP4 with retinol and TTR; retinol 0.5 μM; read-out: human RBP4 binding inhibitory activity (IC50 nM)
MEASURED PROPERTY: IC50 (nM)
Numeric answer only, unit nM assumed.

Sure, the documented IC50 for CC(C)(C)c1ccccc1OC1CN(C(=O)C2(C(=O)O)CC2)C1 is 24

// IC50 lookup, compound = CC(C)(C)c1ccccc1OC1CCN(C(=O)c2ccccn2)CC1 , result: 5

IC50 measured on CC(C)(C)c1cc(F)ccc1OCC1CN(C(=O)CC(=O)O)C1 = 23

Entry CC(C)(C)c1ccccc1SC1CN(C(=O)c2ccccn2)C1 — recorded IC50 = 10

What the record says about CC(C)(C)c1ccccc1OC1CN(C(=O)CC(=O)O)C1 : IC50 is 36

Lookup result for CC(C)(C)c1ccccc1S(=O)(=O)C1CN(C(=O)c2ccccc2)C1 ; measured IC50: 290

Entry CC(C)(C)c1cc(F)ccc1OCC1CCN(C(=O)CC(=O)O)C1 (stereo not drawn) , IC50 reported as 34

Note to self: IC50 recorded for CCCCCS(=O)(=O)NC(=O)C(=O)N1CCC(COc2ccccc2C(C)(C)C)CC1 was 790

The compound CC(C)(C)c1ccccc1OCC1CCN(C(=O)CC(=O)O)C1 (stereo not drawn) showed IC50 equal to 40

* * *

# SYSTEM NAME: human RBP4 (Homo sapiens (Human))
# PROTOCOL TEXT: Binding assay by Retinol-RBP4-TTR ELISA (human-type ELISA)
# PROTOCOL CONDITIONS: inhibition of binding of RBP4 with retinol and TTR; retinol 0.5 μM; read-out: human RBP4 binding inhibitory activity (IC50 nM)
Record form. Attribute: IC50. Fill in for each entry.
Only the number, expressed in nM, is required.

Short answer for CC(C)(C)c1cc(F)ccc1OC1CN(C(=O)c2ccccn2)C1 : IC50 was 20

Notebook: CC(C)(C)c1cc(Cl)ccc1OC1CN(C(=O)c2ccccn2)C1 , IC50 read as 15

Recorded result, CC(C)(C)c1cc(Cl)ccc1OCC1CN(C(=O)C(=O)O)C1 , IC50: 12

Lab note: CC(C)(C)c1cc(Cl)ccc1OC1CN(C(=O)CCC(=O)O)C1 gave IC50 of 71

Note to self: IC50 recorded for CC(C)(C)c1ccccc1OC1CN(C(=O)CCC(=O)O)C1 was 210

In plain terms, CC(C)(C)c1cc(F)ccc1OC1CN(C(=O)CCC(=O)O)C1 has a documented IC50 of 20

* * *

Exercise: for every item that follows, state its recorded RBP4 (% of initial/Control) 24 hr later.
# SYSTEM NAME: RBP4 (Mus musculus (Mouse), UniProt Q00724)
# PROTOCOL TEXT: Blood RBP4 lowering action in C57BL/6J mouse (plasma RBP4 by ELISA)
# Type: in vivo
# PROTOCOL CONDITIONS: 24 hr after single oral 50 mg/kg, mean±SD (n=5)

Item: CC(C)(C)c1cc(F)ccc1OCC1CN(C(=O)CC(=O)O)C1 | RBP4 (% of initial/Control) 24 hr later: 45.2 ± 9.1 % of initial/Control

Lab note: CC(C)(C)c1ccccc1OC1CN(C(=O)CCC(=O)O)C1 gave RBP4 (% of initial/Control) 24 hr later of 50.0 ± 3.4 % of initial/Control

So, CC(C)(C)c1ccccc1OCC1CCN(C(=O)CC(=O)O)C1 (stereo not shown) ? Its RBP4 (% of initial/Control) 24 hr later was 40.4 ± 3.0 % of initial/Control

Looking up CC(C)(C)c1cc(Cl)ccc1OC1CN(C(=O)c2ccccn2)C1 , I see its RBP4 (% of initial/Control) 24 hr later listed as 74.5 ± 8.9 % of initial/Control

Lab note: measured RBP4 (% of initial/Control) 24 hr later of CC(C)(C)c1cc(F)ccc1OCC1CCN(C(=O)CC(=O)O)C1 (stereo not shown) was 64.7 ± 4.3 % of initial/Control

Summary for this compound, CC(C)(C)c1cc(Cl)ccc1OC1CN(C(=O)CCC(=O)O)C1 : RBP4 (% of initial/Control) 24 hr later is 69.7 ± 9.6 % of initial/Control

The measured RBP4 (% of initial/Control) 24 hr later associated with CC(C)(C)c1cc(Cl)ccc1OCC1CN(C(=O)C(=O)O)C1 reads 69.5 ± 6.6 % of initial/Control

* * *

Give RBP4 (% of initial/Control) 4 hr later for every item shown.
# SYSTEM NAME: RBP4 (Mus musculus (Mouse), UniProt Q00724)
# PROTOCOL TEXT: Blood RBP4 lowering action in C57BL/6J mouse (plasma RBP4 by ELISA)
# Format: in vivo
# PROTOCOL CONDITIONS: 4 hr after single oral 50 mg/kg, mean±SD (n=5)

Measured RBP4 (% of initial/Control) 4 hr later (RBP4 (Mus musculus (Mouse), UniProt Q00724)), entry CC(C)(C)c1ccccc1OC1CN(C(=O)CCC(=O)O)C1 [Example 12] : 57.7 ± 3.6 % of initial/Control

Sample CC(C)(C)c1cc(Cl)ccc1OC1CN(C(=O)c2ccccn2)C1 [Example 164] , system: RBP4 (Mus musculus (Mouse), UniProt Q00724). Its RBP4 (% of initial/Control) 4 hr later is 55.6 ± 6.3 % of initial/Control

Bench note, RBP4 (Mus musculus (Mouse), UniProt Q00724): CC(C)(C)c1ccccc1OCC1CCN(C(=O)CC(=O)O)C1 (stereo not shown) [Example 197] , RBP4 (% of initial/Control) 4 hr later reads 39.2 ± 1.4 % of initial/Control

Summary line: CC(C)(C)c1cc(Cl)ccc1OC1CN(C(=O)CCC(=O)O)C1 [Example 189] , RBP4 (Mus musculus (Mouse), UniProt Q00724), reported RBP4 (% of initial/Control) 4 hr later = 51.5 ± 1.7 % of initial/Control

For CC(C)(C)c1cc(Cl)ccc1OCC1CN(C(=O)C(=O)O)C1 [Example 207] on RBP4 (Mus musculus (Mouse), UniProt Q00724), measured RBP4 (% of initial/Control) 4 hr later was 55.6 ± 1.0 % of initial/Control

Value (RBP4 (% of initial/Control) 4 hr later, RBP4 (Mus musculus (Mouse), UniProt Q00724)) for record CC(C)(C)c1cc(F)ccc1OCC1CN(C(=O)CC(=O)O)C1 [Example 143] = 46.7 ± 6.6 % of initial/Control

Result for CC(C)(C)c1cc(F)ccc1OCC1CCN(C(=O)CC(=O)O)C1 (stereo not shown) [Example 215] , tested on RBP4 (Mus musculus (Mouse), UniProt Q00724), RBP4 (% of initial/Control) 4 hr later: 64.3 ± 1.2 % of initial/Control
